From: patent US20260098059A1

Recorded Wnt Reporter EC50, one value per entry.
Target: T1, β-catenin (UniProt P35222 134-665, limits assumed, biotinylated in the SPR and plate assays)
T1 sequence (looked up): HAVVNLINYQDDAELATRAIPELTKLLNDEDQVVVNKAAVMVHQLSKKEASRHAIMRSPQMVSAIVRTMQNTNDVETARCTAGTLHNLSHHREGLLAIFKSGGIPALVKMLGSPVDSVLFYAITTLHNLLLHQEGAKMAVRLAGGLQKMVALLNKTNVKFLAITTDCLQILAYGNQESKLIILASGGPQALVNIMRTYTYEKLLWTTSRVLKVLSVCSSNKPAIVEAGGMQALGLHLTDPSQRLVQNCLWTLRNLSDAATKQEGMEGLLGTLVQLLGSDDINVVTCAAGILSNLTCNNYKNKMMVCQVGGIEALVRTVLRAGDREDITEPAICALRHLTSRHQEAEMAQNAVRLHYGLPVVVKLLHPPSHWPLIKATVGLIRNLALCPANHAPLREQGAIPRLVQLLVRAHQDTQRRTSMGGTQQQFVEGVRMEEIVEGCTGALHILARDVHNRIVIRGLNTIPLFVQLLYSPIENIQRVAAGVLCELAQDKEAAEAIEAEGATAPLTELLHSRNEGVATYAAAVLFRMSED
Test: cell-based or functional assay
*1 amine or outer side, *2 acyl side, *3 side chain or, on linkers, in order; H or OH if unused. Where no end group is shown, it is not given here. [ ]: non-standard residue; d: D form. Cys(Me) = CSC[C@H](N[*:1])C(=O)[*:2]; αMeF = C[C@](N)(Cc1ccccc1)C(=O)O

// known answers, use as guide
* H-MWFLISFWG-OH [SEQ ID NO: 17] | ≤ 7.5 µM
* H-MWILISSWG-OH [SEQ ID NO: 129] | ≤ 7.5 µM
* MWFLISFWAG (HELM PEPTIDE1{M.W.F.L.I.S.F.W.[meA].G}$$$$V2.0; SMILES CC[C@H](C)[C@H](NC(=O)[C@H](CC(C)C)NC(=O)[C@H](Cc1ccccc1)NC(=O)[C@H](Cc1c[nH]c2ccccc12)NC(=O)[C@@H](N)CCSC)C(=O)N[C@@H](CO)C(=O)N[C@@H](Cc1ccccc1)C(=O)N[C@@H](Cc1c[nH]c2ccccc12)C(=O)N(C)[C@@H](C)C(=O)NCC(=O)O) [SEQ ID NO: 45] | ≤ 7.5 µM
* H-MWFLI[Cys(Me)]FWG-OH [SEQ ID NO: 214] | ≤ 7.5 µM
* H-MWFLIHFWG-OH [SEQ ID NO: 163] | ≤ 7.5 µM
* KMSRMWYLISFW (HELM PEPTIDE1{K.M.S.R.M.W.Y.L.I.S.F.W}$PEPTIDE1,PEPTIDE1,1:R3-12:R2$$$V2.0; SMILES CC[C@H](C)[C@@H]1NC(=O)[C@H](CC(C)C)NC(=O)[C@H](Cc2ccc(O)cc2)NC(=O)[C@H](Cc2c[nH]c3ccccc23)NC(=O)[C@H](CCSC)NC(=O)[C@H](CCCNC(=N)N)NC(=O)[C@H](CO)NC(=O)[C@H](CCSC)NC(=O)[C@@H](N)CCCCNC(=O)[C@H](Cc2c[nH]c3ccccc23)NC(=O)[C@H](Cc2ccccc2)NC(=O)[C@H](CO)NC1=O) [SEQ ID NO: 31] | > 30 µM

Query block: # lookup: Wnt Reporter EC50 of KMSRMWFLISFWRG (HELM PEPTIDE1{K.M.S.R.M.W.F.L.I.S.F.W.R.G}$PEPTIDE1,PEPTIDE1,1:R3-14:R2$$$V2.0; SMILES CC[C@H](C)[C@@H]1NC(=O)[C@H](CC(C)C)NC(=O)[C@H](Cc2ccccc2)NC(=O)[C@H](Cc2c[nH]c3ccccc23)NC(=O)[C@H](CCSC)NC(=O)[C@H](CCCNC(=N)N)NC(=O)[C@H](CO)NC(=O)[C@H](CCSC)NC(=O)[C@@H](N)CCCCNC(=O)CNC(=O)[C@H](CCCNC(=N)N)NC(=O)[C@H](Cc2c[nH]c3ccccc23)NC(=O)[C@H](Cc2ccccc2)NC(=O)[C@H](CO)NC1=O) [SEQ ID NO: 24]
Result block: > 30 µM

Query block: # lookup: Wnt Reporter EC50 of H-MWILIC[αMeF]WG-OH [SEQ ID NO: 121]
Result block: ≤ 7.5 µM

Query block: # lookup: Wnt Reporter EC50 of MSRFWFLISFW-NH2 [SEQ ID NO: 77]
Result block: > 30 µM
